System: E. coli EKO-35
Assay: microbe, parasite or virus in culture
Type: cell-based, Escherichia coli
Conditions: Table 10; without pore; technical duplicate
REPORTED ENDPOINT: Minimum inhibitory concentration (MIC), EKO-35 (µg/mL)

MOLECULE: O=C(Nc1ccccc1)Nc1ccc(Br)c(C(F)(F)F)c1 [compound 6]
UNIT SPEC: µg/mL
QUANTITATIVE RESULT: 320
--
MOLECULE: Nc1ccccc1SCc1nc(-c2ccc(Cl)cc2)no1 [compound 16]
UNIT SPEC: µg/mL
QUANTITATIVE RESULT: 10
--
MOLECULE: O=[N+]([O-])c1ccc2c(c1)C(=NO)c1cc([N+](=O)[O-])ccc1-2 [compound 11]
UNIT SPEC: µg/mL
QUANTITATIVE RESULT: 0.078
--
MOLECULE: CC(C)(C)c1cc(C(=O)NNC(=O)Nc2cccc3ccccc23)n(Cc2ccc(F)cc2)n1 [compound 4]
UNIT SPEC: µg/mL
QUANTITATIVE RESULT: 20

----------
Quick note: these are MIC numbers for system: EKO-35 araC::emrKY Pore

MOLECULE: COc1cccc2c1C(=O)c1c(O)c3c(c(O)c1C2=O)C[C@@](O)(C(C)=O)C[C@@H]3O[C@H]1C[C@H](N)[C@H](O)[C@H](C)O1 [daunorubicin]
MIC / µg/mL: 0.781
//
MOLECULE: CO[C@@H]1[C@@H](OC(N)=O)[C@@H](O)[C@H](Oc2ccc3c(O)c(NC(=O)c4ccc(O)c(CC=C(C)C)c4)c(=O)oc3c2C)OC1(C)C [novobiocin]
MIC / µg/mL: 0.781
//
MOLECULE: COc1cccc2c1C(=O)c1c(O)c3c(c(O)c1C2=O)C[C@@](O)(C(=O)CO)C[C@@H]3O[C@H]1C[C@H](N)[C@H](O)[C@H](C)O1 [doxorubicin]
MIC / µg/mL: 0.781
